Where do the numbers come from? From patent US20080234198A1.

Target: T1, human VPAC2 receptor (human, UniProt P41587 24-438)
T1 construct: whole, on cells; CHO-S cell line stably expressing human VPAC2 (cAMP assays)
T1 sequence (looked up): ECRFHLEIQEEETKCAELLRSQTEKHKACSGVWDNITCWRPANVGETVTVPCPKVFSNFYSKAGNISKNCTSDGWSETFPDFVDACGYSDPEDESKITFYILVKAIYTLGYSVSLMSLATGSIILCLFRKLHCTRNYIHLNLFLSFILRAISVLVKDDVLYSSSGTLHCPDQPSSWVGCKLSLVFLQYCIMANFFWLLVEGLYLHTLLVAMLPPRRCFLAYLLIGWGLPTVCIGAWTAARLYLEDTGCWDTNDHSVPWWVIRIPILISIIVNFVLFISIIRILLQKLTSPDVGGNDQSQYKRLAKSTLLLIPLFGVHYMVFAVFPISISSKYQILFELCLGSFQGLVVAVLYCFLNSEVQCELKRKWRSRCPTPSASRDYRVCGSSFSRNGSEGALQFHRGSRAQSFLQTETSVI
Test: filter binding, VPAC2 cell membranes, displacement of 125I-VIP
pIC50: −log10 of the molar value. *1 amine or outer side, *2 acyl side, *3 side chain or, on linkers, in order; H or OH if unused. [ ]: non-standard residue; d: D form. The star is where a group is joined. Tyr(OMe) = methoxy tyrosine, COc1ccc(C[C@H](N[*:1])C(=O)[*:2])cc1; WPEG40K = not defined here; Orn = NCCC[C@H](N)C(=O)O; Abu = CC[C@H](N)C(=O)O; Hexanoyl = CCCCCC(=O)*; Aib = CC(C)(N)C(=O)O
MEASUREMENT NAME: pIC50

BINDER	ENDPOINT RESULT
HSDAVFTEQYTXLRXQLAXXXYLQSIXCXGGPSSGAPPPC (C6-HSDAVFTEQY(OMe)TOrnLRAibQLAAbuAibOrnYLQSIOrnC(PEG20K)OrnGGPSSGAPPPC(PEG20K)-NH2) [P555]	7.81
HSDAVFTEQYTXLRXQLAXXXYLQXIXXGGPSSGAPPPCC (C6-HSDAVFTEQY(OMe)TOrnLRAibQLAAbuAibOrnY(OMe)LQAibIOrnOrnGGPSSGAPPPC(PEG20K)C(PEG20K)-NH2) [P574]	7.49
HSDAVFTEQYTXLRCQVAAXXYLQSIXXGGPSSGAPPPS (C6-HSDAVFTEQY(OMe)TOrnLRC(PEG40K)QVAAAibOrnYLQSIOrnOrnGGPSSGAPPPS-NH2) [P483]	7.43
HSDAVFTEQYTXLRXQLAAXXYXQXIXXGGPSSGAPPPCC (C6-HSDAVFTEQY(OMe)TOrnLRAibQLAAAibOrnYAibQAibIOrnOrnGGPSSGAPPPC(PEG20K)C(PEG20K)-NH2) [P519]	7.29
HSDAVFTEQYTXLRXQCAXXXYLQXIXXGGPSSGAPPPS (C6-HSDAVFTEQY(OMe)TOrnLRAibQC(PEG40K)AAbuAibOrnYLQAibIOrnOrnGGPSSGAPPPS-NH2) [P545]	7.10
HSDAVFTEQYTXLRXQVCAXXYLQSIXXGGPSSGAPPPS (C6-HSDAVFTEQY(OMe)TOrnLRAibQVC(PEG40K)AAibOrnYLQSIOrnOrnGGPSSGAPPPS-NH2) [P478]	7.52
HSDAVFTEQYTXLRXQVAAXXYLQSIXXXGGPSSGAPPPC (C6-HSDAVFTEQY(OMe)TOrnLRAibQVAAAibOrnYLQSIOrnK(CO(CH2)2SPEG20K)OrnGGPSSGAPPPC(PEG20K)-NH2) [P499]	7.47
HSDAVFTEQYTXLRXQVAXXXYLQXIXXGGPSSGAPPPC (C6-HSDAVFTEQY(OMe)TOrnLRAibQVAAbuAibOrnYLQAibIOrnOrnGGPSSGAPPPC(PEG40K)-NH2) [P511]	8.14
Hexanoyl-HSDAVFTEQ[Tyr(OMe)]T[Orn]LRK(WPEG40K)QLA[Abu][Aib][Orn]YLQ[Aib]I[Orn][Orn]GGPSSGAPPPS-NH2 (reading uncertain) [P557]	6.42
HSDAVFTEQYTXLRXQLAXXXYLQSCXXGGPSSGAPPPS (C6-HSDAVFTEQY(OMe)TOrnLRAibQLAAbuAibOrnYLQSC(PEG40K)OrnOrnGGPSSGAPPPS-NH2) [P543]	7.25
HSDAVFTEQYTXLRXQVAAXXYLQSIXXGGPSSGAPPPS (C6-HSDAVFTEQY(OMe)TOrnLRAibQVAAK(CO(CH2)2SPEG40K)OrnYLQSIOrnOrnGGPSSGAPPPS-NH2) [P475]	6.36
HSDAVFTEQYTXLRXQVAAXCYLQSIXXGGPSSGAPPPS (C6-HSDAVFTEQY(OMe)TOrnLRAibQVAAAibC(PEG40K)YLQSIOrnOrnGGPSSGAPPPS-NH2) [P460]	6.04
HSDAVFTEQYTXLRXQLAAXXYLQSIXXCGGPSSGAPPPS (C6-HSDAVFTEQY(OMe)TOrnLRAibQLAAAibOrnYLQSIOrnOrnC(PEG40K)GGPSSGAPPPS-NH2) [P560]	7.94
HSDAVFTEQYTXLRXQVAAXXYLQSXXXGGPSSGAPPPC (C6-HSDAVFTEQY(OMe)TOrnLRAibQVAAAibOrnYLQSK(CO(CH2)2SPEG20K)OrnOrnGGPSSGAPPPC(PEG20K)-NH2) [P497]	6.84
HSDAVFTEQYTXLRXQVAAXXYLQXIXXGGPSSGAPPPC (C6-HSDAVFTEQY(OMe)TOrnLRAibQVAAAibOrnYLQAibIOrnOrnGGPSSGAPPPC(PEG40K)-NH2) [P509]	7.95
C6-HSDAVFTEQ[Tyr(OMe)]T[Orn]LRC(PEG 40 kDa)QLA[Abu][Aib][Orn]YLQ[Aib]I[Orn][Orn]GGPSSGAPPPS-NH2 [P547]	8.25
HSDAVFTEQYTXLRXQVAAXXYLQSIXCXGGPSSGAPPPC (C6-HSDAVFTEQY(OMe)TOrnLRAibQVAAAibOrnYLQSIOrnC(PEG20K)OrnGGPSSGAPPPC(PEG20K)-NH2) [P505]	7.58
HSDAVFTEQYTXLRXQLAXXXYXQXIXXGGPSSGAPPPCC (C6-HSDAVFTEQY(OMe)TOrnLRAibQLAAbuAibOrnYAibQAibIOrnOrnGGPSSGAPPPC(PEG20K)C(PEG20K)-NH2) [P525]	7.38
HSDAVFTEQYTXLRXQLAXXXYLQXIXCXGGPSSGAPPPS (C6-HSDAVFTEQY(OMe)TOrnLRAibQLAAbuAibOrnYLQAibIOrnC(PEG40K)OrnGGPSSGAPPPS-NH2) [P537]	7.76
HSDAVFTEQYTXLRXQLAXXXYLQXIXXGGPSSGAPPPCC (C6-HSDAVFTEQY(OMe)TOrnLRAibQLAAbuAibOrnYLQAibIOrnOrnGGPSSGAPPPC(PEG20K)C(PEG20K)-NH2) [P517]	8.43
HSDAVFTEQYTXLRXQLAXXXYXQSIXXGGPSSGAPPPCC (C6-HSDAVFTEQY(OMe)TOrnLRAibQLAAbuAibOrnYAibQSIOrnOrnGGPSSGAPPPC(PEG30K)C(PEG30K)-NH2) [P602]	7.55
HSDAVFTEQYTXLRXQVAAXXYLQSXXXGGPSSGAPPPS (C6-HSDAVFTEQY(OMe)TOrnLRAibQVAAAibOrnYLQSK(WPEG40K)OrnOrnGGPSSGAPPPS-NH2) [P535]	6.84
HSDAVFTEQYTXLRXQVAAXXYLQSIXXXGGPSSGAPPPS (not fully specified; C6-HSDAVFTEQY(OMe)TOrnLRAibQVAAAibOrnYLQSIOrnK(WPEG40K)OrnGGPSSGAPPPS-NH2) [P454]	7.44
HSDAVFTEQYTXLRXQVAXXXYLQSIXXGGPSSGAPPPC (C6-HSDAVFTEQY(OMe)TOrnLRAibQVAK(CO(CH2)2SPEG20K)AibOrnYLQSIOrnOrnGGPSSGAPPPC(PEG20K)-NH2) [P492]	6.81
